Data origin, for the record: PubChem BioAssay

assay: antimalarial activity against Dd2 strain (AID 2302);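 note: 0% = DMSO untreated growth and 100% = chloroquine plus artemisinin killed control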; conditions: P. falciparum Dd2 in RBCs, LDH growth readout, 72 h; at 2 µM; stronger effect = higher value
Entry flag: Yes if growth inhibition reaches 80%; No if it does not.

compound	class-assignment
O=C(Nc1ccccc1)Nc1ccc(-c2cccc(-c3nc4ccc(C(F)(F)F)cc4[nH]3)c2)cc1	No
Cc1ccc(C(=O)NC2CC2)cc1-c1ccc2c(cnn2S(=O)(=O)c2ccc(F)cc2)c1	No
CCOc1ccc2c(NN=Cc3ccccc3OC)cc(C)nc2c1	Yes
CCCN(CCC)C(=S)N=Nc1c(O)[nH]c2ccccc12	Yes
Cc1[nH]c(C)c(-c2cc3ccccc3o2)c(=O)c1Cl	No
COc1ccc(NC(=O)c2cc(NC(=O)C3(N)CC3)c(=O)n(Cc3ccc(C(N)=O)cc3)c2)cc1	No
Cc1cc(NCCC(=O)NCCOc2ccccc2)nc(Nc2ccccc2)n1	No
CCc1cc(NC2CCN(C)CC2)nc(Nc2ccc(C)cc2)n1	No
COc1ccc(NC(=O)NC2CCN(CCCOc3cc(C)nc4ccccc34)CC2)cc1OC	No
CN1CCCC(COc2cc3c(cc2Br)CCN3C(=O)Nc2ccc(-c3ccncc3)c(Cl)c2)C1 (stereo not given)	Yes
O=S(=O)(NCCN1CCCC1)c1ccc(-c2ccc(CNCc3ccsc3)cc2)s1	No
N=C1c2ccccc2CN1CC(=O)c1ccc(Cl)c(Cl)c1	No
Cc1cccc2[nH]c(-c3cccc(-c4ccc(NC(=O)Nc5cccc(C#N)c5)cc4)c3)nc12	Yes
COc1c(I)cc(Cc2cnc(N)nc2N)cc1I	No
CO/C(=C\C=C\c1cc2cc(Cl)c(Cl)cc2[nH]1)C(=O)Nc1ccc(NCCN(C)C)nc1	No
COc1cc(F)c2ncc(F)c([C@@H](O)CN3CCC(NCc4cc5c(cn4)OCCO5)CC3)c2c1	Yes
CCCCCCCn1c(=N)n(CC(O)c2ccc(Cl)c(Cl)c2)c2ccccc21 (stereo not given)	Yes
COc1ccccc1C1CCN(C2CCC(NC(=O)/C=C/c3cc(F)c(F)cc3F)CC2)CC1 (stereo not given)	No
CS(=O)(=O)Nc1ccc2[nH]cc(C3CCN(CC(O)C4CCN(C(=O)/C=C/c5ccc(Cl)c(Cl)c5)CC4)CC3)c2c1 (stereo not given)	No

====

Below, each entry is listed alongside its reported growth inhibition.
experiment: inhibition of 3D7 malaria parasite growth – strain 3D7 (AID 2306);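 note: 0% = DMSO wells and 100% = chloroquine plus artemisinin control wells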; details: P. falciparum 3D7 erythrocytic growth, LDH absorbance, 72 h; at 2 µM; stronger effect = higher value
measurement-kind: growth inhibition (%)

compound	measurement-kind	result-units	endpoint-value
Cc1c(-c2cccc(Br)c2)[nH]c2nc(N)nc(N)c12	growth inhibition	%	100
COc1ccc(-c2ccc(NC(=O)c3ccc(C#N)cc3)cc2)cc1CN1CCC(O)CC1	growth inhibition	%	94
O=C(NCCN1CCCCC1)c1cc2cc(-c3ccccc3)ccc2n1S(=O)(=O)c1ccccc1	growth inhibition	%	90
COc1cccc2cc(C(=O)N[C@@H](CC(C)C)C(=O)N[C@H](/C=N/N3C(=O)CN(Cc4ccccc4)C3=O)CCc3ccccc3)oc12	growth inhibition	%	85
c1ccc2c(c1)CN(Cc1cc3ccccc3[nH]1)CC1(CCN(Cc3c[nH]c4cnccc34)CC1)O2	growth inhibition	%	101
Cc1cc(=O)[nH]c(-n2nc(C)cc2NC(=O)C(c2ccccc2)c2ccccc2)n1	growth inhibition	%	96
Cc1ccc([N+](=O)[O-])cc1NC(=O)N(CC(O)c1ccccc1)C1CCCCC1 (stereo not given)	growth inhibition	%	100
CC(C)(C)CNc1noc(-c2sccc2Br)n1	growth inhibition	%	82
COc1cc(C(=O)Nc2cccc(-c3nc4ccccc4[nH]3)c2)ccc1OC(C)=O	growth inhibition	%	83
Nc1nc(N)c2c(ccc3c2ccn3Cc2ccc(F)cc2)n1	growth inhibition	%	97
CCCCCCCn1c(=N)n(CC(O)c2ccc(Cl)c(Cl)c2)c2ccccc21 (stereo not given)	growth inhibition	%	98
COc1cc2nc(-c3ccccc3)nc(N3CCN(CC(=O)N4CCCC4)CC3)c2cc1OC	growth inhibition	%	84
COc1cc(NC(=O)c2ccc(-c3ccc(C(C)=O)cc3)s2)ccc1OCCN1CCCC1	growth inhibition	%	100
c1ccc(-n2ncc(CNCc3ccc(-c4ccc(-c5nc6ccccc6[nH]5)s4)cc3)n2)cc1	growth inhibition	%	93
O=C(/C=C/c1ccc([N+](=O)[O-])cc1)N1CCC(NS(=O)(=O)c2ccc(Br)cc2)CC1	growth inhibition	%	93
CCCCOc1c(CCC)cc(Cc2cnc(N)nc2N)cc1CCC	growth inhibition	%	97
O=C(Nc1cc2cc(-c3ccc(CN4CCCCC4)cc3)ccc2n2cnnc12)NC1CCCC1	growth inhibition	%	100
O=C(Nc1cccc(C(F)(F)F)c1)NC1CCN(c2ccnc3ccccc23)C1 (stereo not given)	growth inhibition	%	101
CN(CCN)Cc1ccc(-c2ccc(-c3nc4ccc(C(F)(F)F)cc4[nH]3)s2)cc1	growth inhibition	%	98
COc1ccccc1N1CCN(c2cccc3c2nc(-c2cncc(C#N)c2)n3CCNCc2ccccc2)CC1	growth inhibition	%	101
